# Tested on: Candida albicans
# assay protocol: Tested for antifungal activity against azole resistant strain Candida albicans CIP 1760-88 after 48 hr incubation
# Assay type: functional
What MIC was measured for each of the following?
Only the number, expressed in µg/mL, is required.

Challenge: State the recorded MIC for this entry: CC(C)CCC[C@@H](C)C1CC[C@H]2[C@@H]3[C@@H](N)CC4C[C@@H](O)CC[C@]4(C)[C@H]3CC[C@]12C (some centres undefined)
Response given: 1.5

Challenge: Let us now turn to CC(C)CCC[C@@H](C)C1CC[C@H]2[C@@H]3[C@H](N)CC4C[C@@H](O)CC[C@]4(C)[C@H]3CC[C@]12C (some centres undefined)
Response given: 3.1

Challenge: Let us now turn to c1ccc(-c2ccc(C(c3ccccc3)n3ccnc3)cc2)cc1 (centres undefined)
Response given: 50

Challenge: Let us now turn to CC(C)CCCC(C)[C@H]1CC[C@H]2C3C(N)C=C4C[C@@H](O)CCC4(C)[C@H]3CCC12C (some centres undefined)
Response given: 2.3
